Tested on: human APOE RNA
Experiment: Dose-dependent inhibition of human APOE RNA in HepG2 cells, electroporation, 24 hours (Example 6)
Assay type: cell-based
Conditions: 20,000 nM
Strand notation (5' to 3'): a small letter for the sugar, then the base; units joined by * are phosphorothioate-linked, units joined directly phosphodiester-linked; [ ] holds rarer units or linkages, { } end groups; capitals alone tell only the bases. [ms] = mesyl phosphoramidate linkage; e = 2'-O-(2-methoxyethyl) (MOE); k = constrained ethyl (cEt); [5mC] = 5-methylcytosine; d = 2'-deoxy (DNA)
ASSAY_ENDPOINT: APOE RNA (% UTC)

| SUBSTANCE | OBSERVED_RESULT |
| --- | --- |
| 1736528 (e[5mC]*eT*eT*eG*eG*eTdG[ms]dA[ms]dA[ms]dT*d[5mC]*dT*dT*dT*dA[ms]dT*kT*eA*eA*eA; antisense) [Compound 1736528] | 16 |
| 1736521: 6-10-4 MOE gapmer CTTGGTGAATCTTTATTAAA, linkages sosssszzzsssssssoss (e[5mC]*eTeT*eG*eG*eT*dG[ms]dA[ms]dA[ms]dT*d[5mC]*dT*dT*dT*dA*dT*eTeA*eA*eA) [compound 1736521] | 3 |
| 1652902: 6-10-4 MOE gapmer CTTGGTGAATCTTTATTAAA, linkages sooooossssssssssoss (antisense e[5mC]*eTeTeGeGeTdG*dA*dA*dT*d[5mC]*dT*dT*dT*dA*dT*eTeA*eA*eA) [compound 1652902] | 2 |
| 1736516 (e[5mC]*eTeTeG*eG*kT*dG[ms]dA[ms]dA[ms]dT*d[5mC]*dT*dT*dT*dA[ms]dT*eT*eA*eA*eA; antisense) [Compound 1736516] | 22 |
| 1736519: 6-10-4 MOE gapmer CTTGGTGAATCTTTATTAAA, linkages sososszzzssssssssss (e[5mC]*eTeT*eGeG*eT*dG[ms]dA[ms]dA[ms]dT*d[5mC]*dT*dT*dT*dA*dT*eT*eA*eA*eA) [compound 1736519] | 5 |

----------
Test system: human APOE RNA
Assay: Activity in APOE C57BL/6NTac-Apoeem7250 knock-in mice, single ICV bolus, 16 weeks (Example 12)
Format: in vivo
Settings: cortex; single ICV bolus 300 μg; 16 weeks post treatment; normalized to mouse Ppia
Strand notation (5' to 3'): a small letter for the sugar, then the base; units joined by * are phosphorothioate-linked, units joined directly phosphodiester-linked; [ ] holds rarer units or linkages, { } end groups; capitals alone tell only the bases. [ms] = mesyl phosphoramidate linkage; e = 2'-O-(2-methoxyethyl) (MOE); k = constrained ethyl (cEt); [5mC] = 5-methylcytosine; d = 2'-deoxy (DNA)
APOE RNA (% control) Cortex values by entry

| SUBSTANCE | APOE RNA (% control) Cortex |
| --- | --- |
| 1778125: modified oligonucleotide complementary to human APOE RNA (eA*e[5mC]eTeTeGeG*dT*dG[ms]dA[ms]dA*dT*d[5mC]*dT*dT*dT*dA[ms]kTkT*eA*eA; antisense) [compound 1778125] | 75 % control |
| 1778120 (eA*e[5mC]eTeTeGeG*dT*dG[ms]dA[ms]dA*dT*d[5mC]*dT*dT*dT*dA[ms]kTeT*eA*eA; antisense) [Compound 1778120] | 75 % control |
| 1785604: modified oligonucleotide complementary to human APOE RNA (k[5mC]*dT[ms]dT[ms]kG*dG[ms]kT*dG[ms]dA[ms]dA*dT*d[5mC]*dT*dT*dT*dA*dT*kT*kA*dA[ms]kA; antisense) [compound 1785604] | 41 % control |

Data credit: patent US20250353873A1
